// provenance: patent US10716791B2

targetUnderTest: PAD2 (Mus musculus (Mouse))
Sequence (Q08642 whole entry): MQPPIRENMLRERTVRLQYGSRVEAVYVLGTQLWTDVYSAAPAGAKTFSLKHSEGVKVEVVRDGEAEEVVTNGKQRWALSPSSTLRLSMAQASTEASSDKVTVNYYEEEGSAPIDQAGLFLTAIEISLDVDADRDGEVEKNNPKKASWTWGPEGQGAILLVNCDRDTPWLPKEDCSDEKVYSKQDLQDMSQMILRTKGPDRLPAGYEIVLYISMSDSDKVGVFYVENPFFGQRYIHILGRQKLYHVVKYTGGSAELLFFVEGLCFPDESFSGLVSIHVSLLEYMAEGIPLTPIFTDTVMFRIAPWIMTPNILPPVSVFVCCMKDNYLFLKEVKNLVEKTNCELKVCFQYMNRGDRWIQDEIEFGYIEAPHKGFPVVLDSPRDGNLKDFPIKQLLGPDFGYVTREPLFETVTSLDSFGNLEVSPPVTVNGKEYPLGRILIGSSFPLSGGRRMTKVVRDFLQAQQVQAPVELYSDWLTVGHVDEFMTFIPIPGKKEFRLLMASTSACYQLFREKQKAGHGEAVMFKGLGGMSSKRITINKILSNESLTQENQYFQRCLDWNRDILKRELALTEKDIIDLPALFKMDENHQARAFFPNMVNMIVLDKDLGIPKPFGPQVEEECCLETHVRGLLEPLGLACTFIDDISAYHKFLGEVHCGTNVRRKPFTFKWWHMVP
procedureText: Inhibition of PAD activity (Example 53), PAD2
cond: read-out: PAD2 Ki ± std error; Table 5
# if measured Ki < 600 µM: fulfilled  # else: not fulfilled

INSERT INTO assay_data (chemsmiles, group) VALUES
  ('CC(C)NC(=O)[C@H](CCn1cnc(CC#N)c1)NC(=O)c1ccco1', 'fulfilled'),
  ('CC(C)NC(=O)[C@H](CCn1ccnc1)NC(=O)c1ccco1', 'fulfilled'),
  ('O=C(N[C@@H](Cn1ccnc1)C(=O)OCc1ccccc1)c1ccco1', 'not fulfilled'),
  ('CC(C)NC(=O)[C@H](CCN1CCN(C)CC1)NC(=O)c1ccco1', 'not fulfilled'),
  ('COC(=O)[C@H](Cn1ccnc1)NC(=O)c1ccco1', 'not fulfilled'),
  ('O=C(NCc1ccccc1)[C@H](Cn1ccnc1)NC(=O)N1CCCCC1', 'not fulfilled'),
  ('Cn1cccc1C(=O)N[C@@H](Cn1ccnc1)C(=O)NCc1ccccc1', 'fulfilled'),
  ('COC(=O)[C@H](CCN1CCNCC1)NC(=O)c1ccco1', 'fulfilled'),
  ('CC(C)(C)OC(=O)N[C@H](CCN=[N+]=[N-])C(=O)NCc1ccccc1', 'not fulfilled');
